Origin of values: paper PMC2756588

# TESTED SYSTEM: T1, Sla1-3, P32790
# T1 sequence (P32790 344-424, looked up): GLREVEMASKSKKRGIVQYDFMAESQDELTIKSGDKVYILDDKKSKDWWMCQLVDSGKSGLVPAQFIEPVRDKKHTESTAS
# ASSAY SUMMARY: SPOT array
# PROTOCOL CONDITIONS: median of control spots 5475
MEASURE NAME: SPOT intensity

The following binders have reported results that may help.
{"BINDER": "MTKTPETSPPKRPMG", "MEASURE NAME": "SPOT intensity", "TEST VALUE": 0}
{"BINDER": "HHNRRKPLEVYFKAT", "MEASURE NAME": "SPOT intensity", "TEST VALUE": 14}
{"BINDER": "RKNRAPPQRPRFNRD", "MEASURE NAME": "SPOT intensity", "TEST VALUE": 353}

P = WTQRRGPLVVYAEDN
Q = LKVTPGRRAPTISKI
R = PALPSLPPPPLLNVD
S = FSRRQSMDIPSKNRN
Hello, I need these entries ordered by SPOT intensity, highest reading first. Thanks! Put the labels in the requested order and write them down.
P, Q, S, R
(P: 18, Q: 6, S: 1, R: 0)

A = TPEIPPPLPPKIMVH
B = RRTRLRPPTPLSQLL
Among A and B , which shows a numerically higher SPOT intensity result? Reply with the label of the item you choose.
B
(B: 35, A: 0)
